Source: patent EP1790345A1

test system: Swedish APP695 transgenic HEK293 cells; assay: Aβ1-40 (Sw) bioassay (ELISA of Aβ1-40 in cell supernatant); type: cell-based; settings: at 5 µM; Swedish APP695 transgenic HEK293 cells, ELISA
Reported Endpoint: % reduction of Aβ1-40 secretion

The examples below pair each entry with its known result.
Oc1c(Cl)cc(Br)cc1/C=N/Nc1nc(Nc2ccccc2)nc(Nc2ccccc2)n1 [Compound 201G11] ... 26% (5 µM)
Cc1ccc(C)c(Nc2nc(N/N=C/c3cc(Br)c(O)c(Br)c3O)nc(N3CCOCC3)n2)c1 [Compound 205A04] ... No (5 µM)
Oc1c(Cl)cc(Cl)cc1/C=N/Nc1nc(Nc2ccccc2)nc(Nc2ccccc2)n1 [Compound 201C08] ... 25% (5 µM)
Oc1c(Br)cc(/C=N/Nc2nc(Nc3ccccc3)nc(Nc3ccccc3)n2)cc1Br [Compound 202E09] ... 25% (5 µM)

// next item, % reduction of Aβ1-40 secretion requested
Looking for the measured % reduction of Aβ1-40 secretion of Oc1c(I)cc(I)cc1/C=N/Nc1nc(Nc2ccccc2)nc(Nc2ccccc2)n1 [Compound 201G06] , can you help? No (5 µM)

###

molecular target: recombinant BACE enzyme (Homo sapiens, UniProt P56817); assay: BACE FRET assay (in vitro); details: concentration that reduces the activity of BACE to 50 %
Sequence (P56817 46-501, species assumed): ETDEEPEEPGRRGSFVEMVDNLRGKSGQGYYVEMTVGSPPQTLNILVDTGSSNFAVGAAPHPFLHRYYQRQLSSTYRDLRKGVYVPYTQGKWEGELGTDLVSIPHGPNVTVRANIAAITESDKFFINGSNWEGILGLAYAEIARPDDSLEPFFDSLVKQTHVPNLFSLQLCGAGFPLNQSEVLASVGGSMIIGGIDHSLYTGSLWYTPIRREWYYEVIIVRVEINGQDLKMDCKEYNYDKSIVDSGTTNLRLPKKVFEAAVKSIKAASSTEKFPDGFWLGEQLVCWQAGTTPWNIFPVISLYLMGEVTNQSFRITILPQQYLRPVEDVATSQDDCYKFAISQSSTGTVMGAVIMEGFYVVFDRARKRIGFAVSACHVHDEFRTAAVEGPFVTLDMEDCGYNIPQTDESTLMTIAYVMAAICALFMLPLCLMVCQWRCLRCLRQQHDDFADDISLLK
pIC50: −log10 of the molar value.
Could you label it Y if measured pIC50 is 4 or higher, and N otherwise?

Kindly determine if pIC50 recorded for Oc1c(I)cc(I)cc1/C=N/Nc1nc(Nc2ccccc2)nc(Nc2ccccc2)n1 is above or exactly 4. Y

Kindly determine if pIC50 recorded for Clc1ccccc1-c1ccc(/C=N/Nc2nc(Nc3ccccc3)nc(Nc3ccccc3)n2)o1 is above or exactly 4. N

Kindly determine if pIC50 recorded for Cc1ccc(Nc2nc(N/N=C/c3cc(Br)cc(Br)c3O)nc(N3CCOCC3)n2)cc1Cl is above or exactly 4. Y

Kindly determine if pIC50 recorded for O=C(O)c1cc(-c2ccc(/C=N/Nc3nc(Nc4ccccc4)nc(N4CCCCC4)n3)o2)ccc1Cl is above or exactly 4. N

Kindly determine if pIC50 recorded for O=C(O)c1cc(-c2ccc(C=NNc3nc(Nc4ccc(F)cc4)nc(N4CCOCC4)n3)o2)ccc1Cl is above or exactly 4. Y

Kindly determine if pIC50 recorded for Cc1ccc(Nc2nc(N/N=C/c3cc(Br)cc(Br)c3O)nc(N3CCOCC3)n2)cc1 is above or exactly 4. Y

Kindly determine if pIC50 recorded for Oc1c(Br)cc(Br)cc1/C=N/Nc1nc(Nc2ccccc2)nc(Nc2ccccc2)n1 is above or exactly 4. Y

Kindly determine if pIC50 recorded for Cc1ccc(Cl)cc1-c1ccc(/C=N/Nc2nc(N3CCOCC3)nc(N3CCOCC3)n2)o1 is above or exactly 4. N

Kindly determine if pIC50 recorded for Oc1c(Cl)cc(Br)cc1/C=N/Nc1nc(Nc2ccccc2)nc(Nc2ccccc2)n1 is above or exactly 4. Y

Kindly determine if pIC50 recorded for Oc1c(Br)cc(Br)cc1/C=N/Nc1nc(Nc2ccccc2)nc(N2CCCC2)n1 is above or exactly 4. Y

###

Please go through the items and note down their pIC50.
molecular target: recombinant BACE enzyme (Homo sapiens); experiment: BACE FRET assay (in vitro); conditions: concentration that reduces the activity of BACE to 50 %
Just so you know, pIC50 here is -log10 of the concentration in molar units; reply with that number alone.

Item Oc1c(Cl)cc(Cl)cc1/C=N/Nc1nc(Nc2ccccc2)nc(Nc2ccccc2)n1 with recombinant BACE enzyme (Homo sapiens) - pIC50? 4.95

Item COc1ccc(Nc2nc(NN=Cc3ccc(-c4cccc(C(=O)O)c4)o3)nc(Nc3ccccc3)n2)cc1 with recombinant BACE enzyme (Homo sapiens) - pIC50? 4.18

Item Oc1c(Br)cc(/C=N/Nc2nc(N3CCCCC3)nc(N3CCCCC3)n2)c(O)c1Br with recombinant BACE enzyme (Homo sapiens) - pIC50? 3.77

Item Oc1c(Br)cc(/C=N/Nc2nc(Nc3ccccc3)nc(Nc3ccccc3)n2)cc1Br with recombinant BACE enzyme (Homo sapiens) - pIC50? 4.27

Item CNc1nc(N/N=C/c2ccc(-c3ccc([N+](=O)[O-])cc3)o2)nc(Nc2ccccc2)n1 with recombinant BACE enzyme (Homo sapiens) - pIC50? 4.61

Item COc1ccc(Nc2nc(N/N=C/c3cc(Br)cc(Br)c3O)nc(N3CCOCC3)n2)cc1 with recombinant BACE enzyme (Homo sapiens) - pIC50? 4.46

Item O=C(O)c1cc(-c2ccc(C=NNc3nc(Nc4ccc(F)cc4)nc(N4CCCCC4)n3)o2)ccc1O with recombinant BACE enzyme (Homo sapiens) - pIC50? 4.51
